condition-summary: in ethanol, 323.2 K
test-readout: solubility (mole fraction)

Noted for C[C@@H]1O[C@@H](OC[C@H]2O[C@@H](Oc3c(-c4ccc(O)c(O)c4)oc4cc(O)cc(O)c4c3=O)[C@H](O)[C@@H](O)[C@@H]2O)[C@H](O)[C@H](O)[C@H]1O : its solubility (mole fraction) reads 0.00653

====

condition-summary: in ethanol, 273.2 K
test-readout: solubility (mole fraction)

Noted for C[C@@H]1O[C@@H](OC[C@H]2O[C@@H](Oc3c(-c4ccc(O)c(O)c4)oc4cc(O)cc(O)c4c3=O)[C@H](O)[C@@H](O)[C@@H]2O)[C@H](O)[C@H](O)[C@H]1O : its solubility (mole fraction) reads 0.00348

====

condition-summary: in ethanol, 283.2 K
test-readout: solubility (mole fraction)
Give the figure by itself; no unit, no explanation.

Noted for C[C@@H]1O[C@@H](OC[C@H]2O[C@@H](Oc3c(-c4ccc(O)c(O)c4)oc4cc(O)cc(O)c4c3=O)[C@H](O)[C@@H](O)[C@@H]2O)[C@H](O)[C@H](O)[C@H]1O : its solubility (mole fraction) reads 0.00372

====

condition-summary: in water, 313.2 K
test-readout: solubility (mole fraction)
Give the figure by itself; no unit, no explanation.

Noted for C[C@@H]1O[C@@H](OC[C@H]2O[C@@H](Oc3c(-c4ccc(O)c(O)c4)oc4cc(O)cc(O)c4c3=O)[C@H](O)[C@@H](O)[C@@H]2O)[C@H](O)[C@H](O)[C@H]1O : its solubility (mole fraction) reads 1.02e-05

====

condition-summary: in water, 273.2 K
test-readout: solubility (mole fraction)
Give the figure by itself; no unit, no explanation.

Noted for C[C@@H]1O[C@@H](OC[C@H]2O[C@@H](Oc3c(-c4ccc(O)c(O)c4)oc4cc(O)cc(O)c4c3=O)[C@H](O)[C@@H](O)[C@@H]2O)[C@H](O)[C@H](O)[C@H]1O : its solubility (mole fraction) reads 2.97e-06

====

condition-summary: in water, 303.2 K
test-readout: solubility (mole fraction)
Give the figure by itself; no unit, no explanation.

Noted for C[C@@H]1O[C@@H](OC[C@H]2O[C@@H](Oc3c(-c4ccc(O)c(O)c4)oc4cc(O)cc(O)c4c3=O)[C@H](O)[C@@H](O)[C@@H]2O)[C@H](O)[C@H](O)[C@H]1O : its solubility (mole fraction) reads 8.22e-06

====

condition-summary: in water, 293.2 K
test-readout: solubility (mole fraction)
Give the figure by itself; no unit, no explanation.

Noted for C[C@@H]1O[C@@H](OC[C@H]2O[C@@H](Oc3c(-c4ccc(O)c(O)c4)oc4cc(O)cc(O)c4c3=O)[C@H](O)[C@@H](O)[C@@H]2O)[C@H](O)[C@H](O)[C@H]1O : its solubility (mole fraction) reads 5.87e-06
